test: GC/MS of serum sample: number of times of freezing and thawing (Table I); type: physicochemical, human; details: detection intensity; serum, GC/MS; freezing and thawing 6 times vs 2 times
Experimental Readout: Increase or decrease

[[record]]
molecule = "O=C(CO)[C@H](O)[C@H](O)[C@H](O)CO"
experimental_readout = "Increase or decrease"
reported_result = "Increase"

[[record]]
molecule = "Nc1c(O)cccc1C(=O)O [3-Hydroxyanthranyl acid]"
experimental_readout = "Increase or decrease"
reported_result = "Increase"

[[record]]
molecule = "NCCCCCN"
experimental_readout = "Increase or decrease"
reported_result = "Increase"

[[record]]
molecule = "CCCCCCCCCCCCCCCCCCO"
experimental_readout = "Increase or decrease"
reported_result = "Increase"


For each of the molecules below, state Increase or decrease.
1. O=c1cc[nH]c(=O)[nH]1
2. OC[C@H]1O[C@@H](O[C@H]2[C@H](O)[C@@H](O)C(O)O[C@@H]2CO)[C@H](O)[C@@H](O)[C@H]1O (stereo partly shown)

Increase
Increase
